These data points were gathered from paper doi:10.1101/2022.04.18.488656.

- Tested system: T1, HNRNPH1 full-length (UniProt P31943 1-449)
- T1 sequence: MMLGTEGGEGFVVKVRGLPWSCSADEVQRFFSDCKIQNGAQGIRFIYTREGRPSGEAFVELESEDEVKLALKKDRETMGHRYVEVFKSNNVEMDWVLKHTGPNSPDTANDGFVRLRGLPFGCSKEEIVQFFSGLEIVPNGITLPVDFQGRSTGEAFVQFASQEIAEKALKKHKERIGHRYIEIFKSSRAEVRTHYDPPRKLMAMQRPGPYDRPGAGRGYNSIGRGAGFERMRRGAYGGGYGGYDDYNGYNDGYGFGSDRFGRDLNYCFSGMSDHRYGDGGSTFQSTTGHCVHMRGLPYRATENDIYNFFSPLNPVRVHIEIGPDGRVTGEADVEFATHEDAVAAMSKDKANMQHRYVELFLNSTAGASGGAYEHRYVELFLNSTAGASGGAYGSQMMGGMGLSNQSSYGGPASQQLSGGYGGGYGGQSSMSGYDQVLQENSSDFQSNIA
- Test name: BLI; 150 mM KCl (G4); BLI: 10 mM Tris-HCl pH 7.4, 150 mM KCl, 0.005% P-20, 1 mM EDTA; EMSA: 10 mM Tris-HCl pH 7.4, 1 mM EDTA, 150 mM KCl, room temp, 3 nM RNA; FRET: same Tris/EDTA with 25 mM KCl, room temp
- Measurement setup: protein: recombinant; tags: FLAG; label: 5'-biotin; parallel two-tier G4
Readout name: Kd
Lab note: write values as number then unit, every time.

Query GGUGGGCGGGGAGGAGGACGCGGUGGAAU (structured_RNA) [rG2] yields Kd of 3.1 nM
